Assay: NCI Yeast Anticancer Drug Screen. Data for the rad50 strain (AID 155);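 also: 0% = growth of vehicle-only cultures of the same strain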
Conditions: S. cerevisiae rad50 strain growth inhibition; at 5.0 µM (retest, dose inferred, filed as 0.5); stronger effect = higher value
Compounds without any hit were thinned out: in the full panel of roughly 79,000, 15% have a hit.
Parameter threshold = 10%. Response is 1 when growth inhibition meets or exceeds it, else 0.

Observe how each entry below is paired with its result.
Exercise: Please check the record Cc1cc([N+](=O)[O-])c2ccccc2[n+]1[O-] and state if its growth inhibition is at or above 10%.
Solution: 1

Exercise: Please check the record COc1cc(C2c3cc4c(cc3OC(N3CCOCC3)C2C)OCO4)cc(OC)c1OC (configuration not stated) and state if its growth inhibition is at or above 10%.
Solution: 1

Exercise: Please check the record C[CH2][Sn]1([CH2]C)[O]S(=O)(=O)[O]1 and state if its growth inhibition is at or above 10%.
Solution: 1

New cases:
Exercise: Please check the record NNc1ccccc1 and state if its growth inhibition is at or above 10%.
Solution: 1

Exercise: Please check the record O=C(NCC1(O)N=C(c2ccc(F)cc2)c2ccsc2-n2cccc21)c1ccc(Cl)cc1Cl (configuration not stated) and state if its growth inhibition is at or above 10%.
Solution: 0

Exercise: Please check the record S=c1sc(-c2ccccc2)c[se]1 and state if its growth inhibition is at or above 10%.
Solution: 0

Exercise: Please check the record NC(=O)c1cc([N+](=O)[O-])c(Cl)c([N+](=O)[O-])c1 and state if its growth inhibition is at or above 10%.
Solution: 1

Exercise: Please check the record CC(C)c1cc([N+](=O)[O-])cc([N+](=O)[O-])c1O and state if its growth inhibition is at or above 10%.
Solution: 0

Exercise: Please check the record CC(=O)OC1CCC2C3CCC4C(F)C(=O)C(F)(F)CC4(C)C3CCC12C (configuration not stated) and state if its growth inhibition is at or above 10%.
Solution: 0

Exercise: Please check the record O=[N+]([O-])c1cc(Cl)ccc1S(=O)(=O)F and state if its growth inhibition is at or above 10%.
Solution: 1

Exercise: Please check the record O=C(O)c1ccc([Se][Se]c2ccc(C(=O)O)cc2)cc1 and state if its growth inhibition is at or above 10%.
Solution: 1

###

Experiment: NCI Yeast Anticancer Drug Screen. Data for the cln2 rad14 strain (AID 165);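 also: 0% = growth equal to vehicle treated cultures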
Details: S. cerevisiae cln2 rad14 strain, at 50.0 µM, stronger effect = higher value
About 79,000 compounds went through this panel and 15% of them were active in at least one assay; those are over-represented in the sample as a whole. Activity calls are given as the source filed them. No stated cut-off is given here; in the data, active means growth inhibition above about 70%; inactive means the rest.
value.kind: growth inhibition

Exercise: Give the measured growth inhibition of COc1c[c]([Hg][O]C(C)=O)c(OC)c(NC(=O)CC(C)=O)[c]1[Hg][O]C(C)=O .
Solution: 90% (active)

Exercise: Give the measured growth inhibition of CN(Cc1ccccc1)CC(O)c1cccc(I)c1 (configuration not stated) .
Solution: 31.6% (inactive)

Exercise: Give the measured growth inhibition of O=C(COc1ccc(Cl)c(Cl)c1)Nc1cccc(S(=O)(=O)F)c1 .
Solution: -10.8% (inactive)

Exercise: Give the measured growth inhibition of Cc1c2ccncc2c(CN(CCCl)CCCl)c2c3ccccc3n(C)c12 .
Solution: 88.2% (active)

New cases:
Exercise: Give the measured growth inhibition of O=[N+]([O-])c1ncc[nH]1 .
Solution: 3.1% (inactive)

Exercise: Give the measured growth inhibition of CNC(Cc1ccccc1)c1ccc(OC)cc1 (configuration not stated) .
Solution: 5.75% (inactive)

Exercise: Give the measured growth inhibition of [Br][Co][Br].[NH-]CC[NH-].[NH-]CC[NH-] .
Solution: -6.95% (inactive)

Exercise: Give the measured growth inhibition of COC(=O)C1=NNC2(c3ccccc3Sc3ccccc32)C1C(=O)OC (configuration not stated) .
Solution: 25.5% (inactive)

Exercise: Give the measured growth inhibition of CC(=O)c1cc2c(cc1O)C(C)(C)CCC2(C)C .
Solution: 95.6% (active)

Exercise: Give the measured growth inhibition of Cc1ccccc1[N+](=O)[O-] .
Solution: 9.45% (inactive)

Exercise: Give the measured growth inhibition of CN1CCOC(c2ccccc2)c2ccsc2CC1 (configuration not stated) .
Solution: 0% (inactive)

Exercise: Give the measured growth inhibition of O=CNc1ccc(Cl)cc1C(=O)c1ccccc1 .
Solution: 28.8% (inactive)

###

Assay: NCI Yeast Anticancer Drug Screen. Data for the mec2-1 strain (AID 157)
Details: S. cerevisiae mec2-1 strain, at 50.0 µM
This is part of a sample that, as a whole, favours compounds with a hit. Of some 79,000 tested, about 15% had one in any assay. The source made the active and inactive calls. No stated cut-off is given here; in the data, active means growth inhibition above about 70%; inactive means the rest.
// classify into active, inactive

Observe how each entry below is paired with its result.
Exercise: What was the test verdict on COc1c[c]([Hg][O]C(C)=O)c(OC)c(NC(=O)CC(C)=O)[c]1[Hg][O]C(C)=O ?
Solution: active

Exercise: What was the test verdict on CN(Cc1ccccc1)CC(O)c1cccc(I)c1 (configuration not stated) ?
Solution: inactive

Exercise: What was the test verdict on [C-]#[O+].[C-]#[O+].[Ni].c1ccc([PH+](CC[PH+](c2ccccc2)c2ccccc2)CC[PH+](c2ccccc2)c2ccccc2)cc1 ?
Solution: inactive

Exercise: What was the test verdict on CCc1ccc(CCN2CCCCC2)nc1 ?
Solution: inactive

Exercise: What was the test verdict on CNC(=O)c1cn(C2OC(CO)C(O)C2O)c2ncnc(N)c12 (configuration not stated) ?
Solution: inactive

New cases:
Exercise: What was the test verdict on COP1(=O)OCC(C)(C)CO1 ?
Solution: inactive

Exercise: What was the test verdict on CCCCOC1OCN(C2CCCCC2)CC1(C)C (configuration not stated) ?
Solution: inactive

Exercise: What was the test verdict on CCOP(=O)(CC)C(Cl)(Cl)Cl (configuration not stated) ?
Solution: inactive

Exercise: What was the test verdict on O=C(CCCc1ccccc1)[O][Hg][c]1ccccc1 ?
Solution: active

###

Experiment: NCI Yeast Anticancer Drug Screen. Data for the rad50 strain (AID 155);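 also: 0% = growth of vehicle-only cultures of the same strain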
Settings: S. cerevisiae rad50 strain growth inhibition; at 50.0 µM; stronger effect = higher value
Compounds without any hit were thinned out: in the full panel of roughly 79,000, 15% have a hit.
Listing: growth inhibition of selected compounds
Give the quantity in %, number only.

Guide cases for growth inhibition, answers given:
Exercise: Give the measured growth inhibition of Cc1ccc(-n2cnc3c(N(CCCl)CCCl)ncnc32)cc1 .
Solution: 10.3

Exercise: Give the measured growth inhibition of c1c[nH]c(Cc2ncc(Cc3cnc[nH]3)[nH]2)n1 .
Solution: 4.4

Exercise: Give the measured growth inhibition of CCC1(c2c(F)c(F)c(N)c(F)c2F)CCC(=O)NC1=O (configuration not stated) .
Solution: -11.9

Exercise: Give the measured growth inhibition of CC(CC(C)(C)C)C(=O)Cl (configuration not stated) .
Solution: 7.85

Exercise: Give the measured growth inhibition of CC(=O)Oc1ccc(C=C(C#N)C#N)cc1 .
Solution: 40.6

Exercise: Give the measured growth inhibition of COC(CN1CCOCCOCCOCC1)CN1CCOCCOCCOCC1 .
Solution: -9.3

New cases:
Exercise: Give the measured growth inhibition of CCCCc1ccc(N=C(N)N)cc1 .
Solution: 25.6

Exercise: Give the measured growth inhibition of O=C(Oc1cc(Cl)c(S(=O)(=O)F)cc1Cl)c1ccccc1Cl .
Solution: 93.5

Exercise: Give the measured growth inhibition of C[N+]1(C)CCN(c2ccccc2)CC1 .
Solution: 18.9

Exercise: Give the measured growth inhibition of O=C(O)c1cccc2cccc(C(=O)O)c12.[Hg] .
Solution: 99.4

Exercise: Give the measured growth inhibition of CCCCCCCCCCC[CH2][Hg][CH2]CCCCCCCCCCC .
Solution: 9.8

Exercise: Give the measured growth inhibition of CC(C)=CCC/C(C)=C/CC/C(C)=C/Cc1c(O)c2ccccc2oc1=O .
Solution: 89

###

Experiment: NCI Yeast Anticancer Drug Screen. Data for the sgs1 mgt1 strain (AID 161);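 also: 0% = growth of cultures given vehicle only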
Details: S. cerevisiae sgs1 mgt1 strain, at 5.0 µM (retest, dose inferred, filed as 0.5), stronger effect = higher value
This is part of a sample that, as a whole, favours compounds with a hit. Of some 79,000 tested, about 15% had one in any assay.
value.kind: growth inhibition (%)
Give the quantity in %, number only.

Exercise: Give the measured growth inhibition of O=C(CCl)OCc1ccccc1 .
Solution: 0

Exercise: Give the measured growth inhibition of CCOP(=O)(OCC)/C(C#N)=C/c1ccc(Br)cc1 .
Solution: -18

Exercise: Give the measured growth inhibition of Cc1cccc(C)c1N=C(N)N[N+](=O)[O-] .
Solution: 90

###

Test: NCI Yeast Anticancer Drug Screen. Data for the mlh1 rad18 strain (AID 175)
Details: S. cerevisiae mlh1 rad18 strain growth inhibition; at 50.0 µM; stronger effect = higher value
The panel holds about 79,000 compounds, 15% with a hit somewhere; the sample as a whole holds those more often.
value.kind: growth inhibition (%)
Give the quantity in %, number only.

Exercise: Give the measured growth inhibition of CCCP(=S)(CCC)P(=S)(CCC)CCC .
Solution: 20.9

Exercise: Give the measured growth inhibition of c1ccc(CN2C3CCCC2CC(c2ccccc2)C3)cc1 (stereo not drawn) .
Solution: 85.5

Exercise: Give the measured growth inhibition of O=C1C(Cl)=C(Cl)C(=O)c2ccccc21 .
Solution: 98

New cases:
Exercise: Give the measured growth inhibition of CCC[CH2][Sn]([I])([CH2]I)[CH2]CCC .
Solution: 98.5

Exercise: Give the measured growth inhibition of CCC[CH2][Sn]([CH2]C)([CH2]C)[CH2]C .
Solution: 31.3

Exercise: Give the measured growth inhibition of Cc1nnc2n1-c1ccccc1C(=S)N1CSCC21 (stereo not drawn) .
Solution: -0.45

Exercise: Give the measured growth inhibition of CC(=O)C1(c2ccccc2)CCCN(C)CC1 (stereo not drawn) .
Solution: -3.45

Exercise: Give the measured growth inhibition of O=P1(N(CCCl)CCCl)Oc2c(Cl)cc(Cl)c(Cl)c2Cc2c(Cl)c(Cl)cc(Cl)c2O1 .
Solution: -10.7
